Where these numbers come from: paper PMC7038937

Biological target: STAU1 dsRBD4 (Homo sapiens, UniProt O95793-2 205-274)
Sequence (O95793 286-355): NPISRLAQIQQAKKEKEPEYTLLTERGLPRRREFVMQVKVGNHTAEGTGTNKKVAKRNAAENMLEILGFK
Assay: fluorescence anisotropy
metric: pKd
Answers are plain numbers, as −log10 of the molar value.

Q. May I ask what pKd has been recorded for GGCAGAAGCUGCCUCUUCGGAGGCAGUUUCUGCC (structured_RNA) [top 2/3 ARF1 SBS (sARF1 SBS)] ?
A. 7.13
